# testTarget: 6-phosphogluconate dehydrogenase, decarboxylating (Homo sapiens)
# measurementProtocol: inhibition of human phosphogluconate dehydrogenase – biochemical, recombinant enzyme, NADPH absorbance, primary screen (AID 1159550)
# appliedConditions: recombinant 6PGD, NADPH absorbance 341 nm; at 10 µM; stronger effect = higher value
Peptide text beside a SMILES is read from it.
recordedEndpoint: inhibition (%)
State the answer as a number, implicitly in %.

# example entries with known answers
May I ask what inhibition has been recorded for O=C(O)P(=O)(O)O ?
-6.34

Could you tell me which inhibition is on file for CC(=O)NCCCCCC(=O)O ?
-3.52

Need inhibition of CC(=O)O[C@]1(C(C)=O)CC[C@H]2[C@@H]3C=C(Cl)C4=CC(=O)CC[C@]4(C)[C@H]3CC[C@@]21C , thanks.
-12

Find the recorded inhibition belonging to O=c1cc(CO)occ1O and report it.
6.93

***
What does the record list as inhibition for CC(=O)Oc1cccc(O)c1 ?
8.3

Recorded inhibition for Cc1c(N(C)C)c(=O)n(-c2ccccc2)n1C , please?
13.9

What inhibition value was documented for this compound, O=c1c(O)c(-c2ccc(O)c(O)c2)oc2cc(O)cc(O)c12 ?
26.1

Given CC(C(=O)O)c1ccc(C(=O)c2cccs2)cc1 (stereo not drawn) , state its recorded inhibition.
-2.86

inhibition for COC(=O)[C@H](Cc1ccccc1)NC(=O)[C@@H](N)CC(=O)O (H-Asp-Phe-OMe) ?
10.8

I have this compound here, NC(=O)c1ccc([N+](=O)[O-])cc1Cl , and I need its recorded inhibition.
10.9

Name the recorded inhibition for CC1(C)O[C@@H]2C[C@H]3[C@@H]4C[C@H](F)C5=CC(=O)CC[C@]5(C)[C@H]4[C@@H](O)C[C@]3(C)[C@]2(C(=O)CO)O1 .
8.44

Quick one: inhibition for CCN1CCN(C(=O)N[C@@H](C(=O)N[C@@H]2C(=O)N3C(C(=O)O)=C(CSc4nnnn4C)CS[C@H]23)c2ccc(O)cc2)C(=O)C1=O ?
16.7

// returns reported inhibition for input O=C1OCCN1/N=C/c1ccc([N+](=O)[O-])o1
12.5

Which measured inhibition value corresponds to COc1ccc(CN(CCN(C)C)c2ncccn2)cc1 ?
0.837

---

# measurementProtocol: EMT-state selective cytotoxicity in co-culture – imaging, PC-3E GFP, TEM4-18 mCherry, primary screen (AID 1345086);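 also: normalised mesenchymal count divided by normalised epithelial count so high means epithelial killing; cells exposed to compound for 72 h before imaging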
# appliedConditions: PC-3E GFP / TEM4-18 mCherry co-culture, imaging cell counts; at 1 µM; actives lie on both sides; counts scaled to control wells, 1 = unselective
recordedEndpoint: red/green cell ratio (normalised)
// return a plain number; no unit text

Solved cases below.
Which value of red/green cell ratio (normalised) has been reported for Cc1ccc(C(=O)C(C)CN2CCCCC2)cc1 (centres undefined) in the records?
1

# query: red/green cell ratio (normalised) of entry CC1=CC(=O)c2ccccc2C1=O
0.99

Any idea what red/green cell ratio (normalised) was measured for Cn1c([N+](=O)[O-])cnc1COC(N)=O ?
1

Continuing:
// returns reported red/green cell ratio (normalised) for input C#CCN(C)Cc1ccccc1
1.02

---

# measurementProtocol: EMT-state selective cytotoxicity in co-culture – imaging, PC-3E GFP, TEM4-18 mCherry, primary screen (AID 1345086);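 also: normalised mesenchymal count divided by normalised epithelial count so high means epithelial killing; cells exposed to compound for 72 h before imaging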
# appliedConditions: PC-3E GFP / TEM4-18 mCherry co-culture, imaging cell counts; at 1 µM; actives lie on both sides; counts scaled to control wells, 1 = unselective
# label = Condition met if red/green cell ratio (normalised) >= 1 else Condition not met

Determine whether this compound has red/green cell ratio (normalised) no lower than 1: CCN(CC)CCOC(=O)C(c1ccccc1)c1ccccc1
Condition met

For this compound, is measured red/green cell ratio (normalised) 1 or higher? COC1=C(OC)C(=O)C(CCCCCCCCCCO)=C(C)C1=O
Condition not met

Dear colleague, could you confirm whether CC/C(=C(/CC)c1ccc(O)cc1)c1ccc(O)cc1 has red/green cell ratio (normalised) at or above 1?
Condition met

Entry CN1CCC[C@@H]1CCO[C@](C)(c1ccccc1)c1ccc(Cl)cc1 : is its red/green cell ratio (normalised) no less than 1?
Condition met

Say whether Cc1nc2sccn2c(=O)c1CCN1CCC(=C(c2ccc(F)cc2)c2ccc(F)cc2)CC1 shows red/green cell ratio (normalised) of 1 or more.
Condition met

---
Is reported red/green cell ratio (normalised) greater than or equal to 1 here: Cc1ccc(S(=O)(=O)NC(=O)NN2CC3CCCC3C2)cc1 (stereo unspecified)
Condition not met

# check: red/green cell ratio (normalised) of NNc1nncc2ccccc12 is greater than or equal to 1
Condition met

Quick check: does NCCCCCC(=O)O have red/green cell ratio (normalised) greater than or equal to 1?
Condition not met

Could you please find out whether CCCCC1C(=O)N(c2ccccc2)N(c2ccccc2)C1=O has red/green cell ratio (normalised) that meets 1 or exceeds it?
Condition not met

Threshold query (red/green cell ratio (normalised) >= 1) on CCCC(C(=O)OCCN(CC)CC)(c1ccccc1)c1ccccc1
Condition met

Threshold query (red/green cell ratio (normalised) >= 1) on Cc1cc(C)cc(OCC2CNC(=O)O2)c1 (stereo unspecified)
Condition met

Item CC(C)[C@H](N)C(=O)OCCOCn1cnc2c(=O)[nH]c(N)nc21 with red/green cell ratio (normalised) of 1 or above?
Condition not met

---

# measurementProtocol: compounds altering circadian rhythm period length – cell-based, LOPAC library, luminescence reporter (AID 2774);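 also: values are relative to mean of DMSO wells on each plate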
# appliedConditions: circadian reporter cells, at 7 µM, actives lie on both sides
Calls of active or inactive are those of the source. No rule for the calls is given here.
Measured period change values are reported for all entries that follow.

Study these solved cases before continuing.
// period change lookup, key: COc1cc2nc(N3CCN(C(=O)C4COc5ccccc5O4)CC3)nc(N)c2cc1OC (centres undefined)
0.11 h (inactive)

Query (compound): Clc1ccc(C(c2ccccc2Cl)C(Cl)Cl)cc1 (centres undefined) ; field requested: period change
-0.13 h (inactive)

Look at this compound and give its reported period change. CN1CCN(C2=Nc3ccccc3Oc3ccc(Cl)cc32)CC1
-0.045 h (inactive)

I am curious: what period change value has been reported for COc1ccc2[nH]cc(CCNC(C)=O)c2c1 ?
-0.21 h (inactive)

Please report the recorded period change for O=NN(CCCl)C(=O)NCCCl .
0.115 h (inactive)

Others:
Can you share its period change? I mean this compound: CC(CN(C)C)CN1c2ccccc2CCc2ccccc21 (centres undefined)
-0.085 h (inactive)

Report period change for CN(C)C(=O)Oc1cccc([N+](C)(C)C)c1 please.
0.06 h (inactive)

Entry O=C(O)c1cccnc1Nc1cccc(C(F)(F)F)c1 has what period change?
0.085 h (inactive)

Endpoint output: period change of C[C@H]1c2cccc(O)c2C(O)=C2C(=O)[C@]3(O)C(O)=C(C(N)=O)C(=O)[C@@H](N(C)C)[C@@H]3[C@@H](O)[C@@H]21 . Value?
-0.14 h (inactive)

---

# measurementProtocol: polyglutamine aggregate formation blockers (AID 1604)
# appliedConditions: polyglutamine-induced protein aggregation inhibition assay; stronger effect = higher value; concentration not given here
Listed here: items and their measured inhibition of aggregation.
Please give a number only; it is taken to be in %.

For the compound shown here, CCCCCCCCCCCCCCCCCCOCC(O)CO (configuration not stated) , give the reported inhibition of aggregation.
34.7

Further cases:
Please report the recorded inhibition of aggregation for Cn1c(=O)c2c(ncn2CC(O)CO)n(C)c1=O (configuration not stated) .
21.9

Requested read-out: inhibition of aggregation. Entry: Nc1ccc(S(=O)(=O)NC(=O)c2ccccc2)cc1
47.9

Which inhibition of aggregation is reported for this compound? CCn1cc(C(=O)O)c(=O)c2cnc(N3CCNCC3)nc21
72.4

Please look up its inhibition of aggregation: Oc1c(Cl)cc(Cl)c(Cl)c1Cc1c(O)c(Cl)cc(Cl)c1Cl
91.6

For the compound Oc1ccc(Cl)cc1Cc1cc(Cl)ccc1O , what inhibition of aggregation is on record?
29.6

Which value of inhibition of aggregation has been reported for CN(C)CCOC(=O)COc1ccc(Cl)cc1 in the records?
83.1

Quick one: inhibition of aggregation for Cn1cnc2c1c(=O)[nH]c(=O)n2C ?
28.1

Quick check: inhibition of aggregation of CN(C)[C@@H]1C(=O)C(C(N)=O)=C(O)[C@@]2(O)C(=O)C3=C(O)c4c(O)ccc(Cl)c4[C@@H](O)[C@H]3C[C@@H]12 ?
27.8

---

The entries below are paired with their reported mean signal.
# measurementProtocol: modulation of C. elegans fzo-1 (AID 1259413);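 also: fzo-1 mutant C. elegans worms in liquid wells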
# appliedConditions: C. elegans fzo-1 modulator screen, mean read-out; stronger effect = higher value
Starred links: 1 amine or outer side, 2 acyl side, 3 side chain; linkers in the order of their positions; H or OH if unused. Positions of bridges follow the written chain, without caps; N, C: chain ends. Non-standard residues stand in square brackets, D forms with d. Residues, ends and D or L forms follow the SMILES beside them. Chains are numbered I, II in the order given. Actinocin(9to1) = Cc1c2oc3c(C)ccc(C(=O)[*:1])c3nc-2c(C(=O)[*:2])c(N)c1=O; NMeV = CN[C@H](C(=O)O)C(C)C; Sar = CNCC(=O)O
Write no unit; give the number alone.

# count of solved cases: 5
For CCc1oc2ccccc2c1C(=O)c1cc(Br)c(O)c(Br)c1 , what is its reported mean signal?
252

Entry Cn1c(NCCN(CCO)CCCc2ccc([N+](=O)[O-])cc2)cc(=O)n(C)c1=O : reported mean signal = ?
242

Sample O=c1c(-c2ccccc2)c1-c1ccccc1 — what was its mean signal?
254

Endpoint output: mean signal of O=C1CC2(CCCC2)CC(=O)N1CCNCC1COc2ccccc2O1 (stereo not drawn) . Value?
200

Return reported mean signal; argument: CCOC(=O)C1=C(C)NC(C)=C(C(=O)OC)C1c1cccc(Cl)c1Cl (stereo not drawn)
217

Further cases:
Would you kindly share the measured mean signal for CCOc1cc(N)c(Cl)cc1C(=O)NCC1CN(Cc2ccc(F)cc2)CCO1 (stereo not drawn) ?
261

Would you mind telling me what mean signal value was observed for COC1=C(OC)C(=O)C(CCCCCCCCCCO)=C(C)C1=O ?
254

Could you share which mean signal value was measured for Cc1c2oc3c(C)ccc(C(=O)N[C@@H]4C(=O)N[C@H](C(C)C)C(=O)N5CCC[C@H]5C(=O)N(C)CC(=O)N(C)[C@@H](C(C)C)C(=O)O[C@@H]4C)c3nc-2c(C(=O)N[C@@H]2C(=O)N[C@H](C(C)C)C(=O)N3CCC[C@H]3C(=O)N(C)CC(=O)N(C)[C@@H](C(C)C)C(=O)O[C@@H]2C)c(N)c1=O (I: T[dV]P[Sar][NMeV] / II: T[dV]P[Sar][NMeV]; ester I:1-I:C, II:1-II:C; linker I:N-II:N via Actinocin(9to1)) ?
256

Would you kindly share the measured mean signal for Cc1nc2ccc(CN(C)c3ccc(C(=O)N[C@@H](CCC(=O)O)C(=O)O)s3)cc2c(=O)[nH]1 ?
269

Request the reported mean signal associated with NS(=O)(=O)Cc1noc2ccccc12
260

mean signal lookup needed for Nc1[nH]c(=O)ncc1F , thanks.
243

// mean signal lookup, key: COc1cc2c(cc1OC)C(=O)C(CC1CCN(Cc3ccccc3)CC1)C2 (stereo not drawn)
214

Recorded mean signal of Oc1c(Cl)cc(Cl)c(Cl)c1Cc1c(O)c(Cl)cc(Cl)c1Cl , please.
211
